Record form. Attribute: melting point. Fill in for each entry.

Input line: Find the recorded melting point belonging to Cc1ccccc1C1=NN(C(N)=O)C(c2ccccc2OCC(=O)NO)C1 (stereo not drawn) [2g] and report it.
Output line: 144.5 to 146.2 °C

Input line: Then what about the molecule COc1cccc(C2=NN(C(N)=O)C(c3ccccc3OCC(=O)NO)C2)c1 (stereo not drawn) [2e] ?
Output line: 208.5 to 210.3 °C

Input line: Another molecule: COc1ccccc1C1=NN(C(N)=O)C(c2ccccc2OCC(=O)NN)C1 (stereo not drawn) [compound 2o]
Output line: 156.6 to 158.2 °C

Input line: Similarly, NC(=O)N1N=C(c2cccc(Br)c2)CC1c1ccccc1OCC(=O)NO (stereo not drawn) [2b] ?
Output line: 164.4 to 166.4 °C

Input line: Do the same for NC(=O)N1N=C(c2ccccc2Cl)CC1c1ccccc1OCC(=O)NO (stereo not drawn) [compound 2i] please
Output line: 172.2 to 174.1 °C

Input line: Same for NC(=O)N1N=C(c2ccccc2F)CC1c1ccccc1OCC(=O)NO (stereo not drawn) [2h]
Output line: 124.4 to 126.1 °C

Input line: Now consider NC(=O)N1N=C(c2cccc3ccccc23)CC1c1ccccc1OCC(=O)NO (stereo not drawn) [2m] .
Output line: 204.2 to 206.2 °C

Input line: Can you check NC(=O)N1N=C(c2ccccc2Br)CC1c1ccccc1OCC(=O)NO (stereo not drawn) [compound 2a] next?
Output line: 168.4 to 170.2 °C

Input line: And then COc1ccc(C2=NN(C(N)=O)C(c3ccccc3OCC(=O)NO)C2)cc1 (stereo not drawn) [2f] , what is it?
Output line: 168.4 to 170.2 °C

----------
Molecular target: porcine APN (Sus scrofa)
Sequence (P15145 1-963): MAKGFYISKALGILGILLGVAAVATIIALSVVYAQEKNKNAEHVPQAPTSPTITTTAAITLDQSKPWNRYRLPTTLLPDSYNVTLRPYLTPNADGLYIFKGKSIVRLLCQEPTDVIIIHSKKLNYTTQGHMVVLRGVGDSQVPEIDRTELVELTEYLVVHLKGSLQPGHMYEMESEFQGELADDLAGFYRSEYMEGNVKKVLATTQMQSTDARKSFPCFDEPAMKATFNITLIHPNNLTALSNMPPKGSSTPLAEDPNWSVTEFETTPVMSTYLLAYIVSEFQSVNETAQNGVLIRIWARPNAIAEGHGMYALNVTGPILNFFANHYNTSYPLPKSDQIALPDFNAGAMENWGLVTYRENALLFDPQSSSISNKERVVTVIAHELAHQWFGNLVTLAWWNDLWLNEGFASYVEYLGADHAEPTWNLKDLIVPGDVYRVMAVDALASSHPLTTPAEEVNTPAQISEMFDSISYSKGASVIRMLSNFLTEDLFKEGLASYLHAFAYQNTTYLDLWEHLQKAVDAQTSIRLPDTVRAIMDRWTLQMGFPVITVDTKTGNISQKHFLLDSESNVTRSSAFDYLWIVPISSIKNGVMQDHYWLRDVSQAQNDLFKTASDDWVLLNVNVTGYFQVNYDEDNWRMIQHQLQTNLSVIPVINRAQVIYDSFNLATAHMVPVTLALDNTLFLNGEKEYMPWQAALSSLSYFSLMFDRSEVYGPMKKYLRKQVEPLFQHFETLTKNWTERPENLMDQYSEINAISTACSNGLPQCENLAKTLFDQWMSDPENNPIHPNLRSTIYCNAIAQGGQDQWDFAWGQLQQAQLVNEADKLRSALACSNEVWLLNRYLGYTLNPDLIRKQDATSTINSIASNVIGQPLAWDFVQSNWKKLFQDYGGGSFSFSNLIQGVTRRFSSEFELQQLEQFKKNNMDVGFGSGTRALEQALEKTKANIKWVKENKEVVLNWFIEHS
property: IC50 (nM)
Lab book: enter the figure in nM, no units written.

Input line: Which IC50 is reported with porcine APN (Sus scrofa) for this entry: NC(=O)N1N=C(c2c(F)cccc2F)CC1c1ccccc1OCC(=O)NO (stereo not drawn) [2j] ?
Output line: 120

Input line: What would you report for NC(=O)N1N=C(c2cccc(Br)c2)CC1c1ccccc1OCC(=O)NO (stereo not drawn) [2b] ?
Output line: 260

Input line: Do the same for NC(=O)N1N=C(c2ccc(Cl)cc2Cl)CC1c1ccccc1OCC(=O)NO (stereo not drawn) [2l] please
Output line: 420

Input line: Ok, now COc1ccc(C2=NN(C(N)=O)C(c3ccccc3OCC(=O)NO)C2)cc1 (stereo not drawn) [2f]
Output line: 12500

Input line: Can you handle COc1cccc(C2=NN(C(N)=O)C(c3ccccc3OCC(=O)NO)C2)c1 (stereo not drawn) [2e] next?
Output line: 320

Input line: What about NC(=O)N1N=C(c2ccccc2)CC1c1ccccc1OCC(=O)NO (stereo not drawn) [compound 1, reference compound] ?
Output line: 150
